All figures here come from ChEMBL document CHEMBL1944607.

# TESTED ON: Transient receptor potential cation channel subfamily A member 1 (Homo sapiens)
# Sequence (O75762 whole entry): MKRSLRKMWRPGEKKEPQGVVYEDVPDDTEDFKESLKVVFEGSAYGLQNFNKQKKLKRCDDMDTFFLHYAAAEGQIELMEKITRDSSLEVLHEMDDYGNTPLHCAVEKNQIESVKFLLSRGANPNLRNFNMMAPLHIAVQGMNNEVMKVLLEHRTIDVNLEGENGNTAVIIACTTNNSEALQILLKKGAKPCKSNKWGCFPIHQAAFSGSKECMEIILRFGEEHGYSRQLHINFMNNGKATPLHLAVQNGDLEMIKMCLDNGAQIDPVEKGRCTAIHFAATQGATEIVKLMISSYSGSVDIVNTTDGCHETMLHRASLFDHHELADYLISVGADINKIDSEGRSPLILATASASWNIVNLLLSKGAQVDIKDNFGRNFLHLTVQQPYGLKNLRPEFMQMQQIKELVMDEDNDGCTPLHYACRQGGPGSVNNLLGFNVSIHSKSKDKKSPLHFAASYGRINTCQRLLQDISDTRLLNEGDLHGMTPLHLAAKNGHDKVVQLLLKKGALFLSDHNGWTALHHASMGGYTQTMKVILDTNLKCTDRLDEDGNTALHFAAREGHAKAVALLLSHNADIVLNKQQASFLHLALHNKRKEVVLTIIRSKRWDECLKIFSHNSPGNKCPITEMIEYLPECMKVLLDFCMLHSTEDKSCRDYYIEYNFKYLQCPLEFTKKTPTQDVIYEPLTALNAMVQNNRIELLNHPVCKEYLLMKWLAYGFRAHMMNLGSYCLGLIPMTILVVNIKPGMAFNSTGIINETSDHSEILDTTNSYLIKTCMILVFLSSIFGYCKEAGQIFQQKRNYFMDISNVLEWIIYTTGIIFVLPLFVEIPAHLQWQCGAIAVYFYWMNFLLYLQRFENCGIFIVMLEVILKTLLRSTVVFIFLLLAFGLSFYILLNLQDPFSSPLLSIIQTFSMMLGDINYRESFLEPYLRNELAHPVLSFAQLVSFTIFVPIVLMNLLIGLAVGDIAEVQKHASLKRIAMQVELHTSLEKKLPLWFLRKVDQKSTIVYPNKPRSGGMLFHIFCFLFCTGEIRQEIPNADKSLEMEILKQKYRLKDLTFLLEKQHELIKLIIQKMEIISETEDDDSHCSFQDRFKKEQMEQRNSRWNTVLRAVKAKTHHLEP
# ASSAY NAME: Antagonist activity at human TRPA1 expressed in human IMR90 cells assessed as inhibition of acrolein-induced calcium influx at 3 uM after 40 mins by fluorescence analysis
# Type: functional, cell-based
# STATED CONDITIONS: IMR-90
READOUT KIND: inhibition (%)

[
  {
    "MOLECULE": "Cn1c(=O)c2c(ccn2CC(=O)Nc2nc(-c3ccc(F)c(C(F)(F)F)c3)cs2)n(C)c1=O",
    "TESTED ON": "Transient receptor potential cation channel subfamily A member 1 (Homo sapiens)",
    "READOUT KIND": "inhibition",
    "MEASURED NUMBER": 76.1
  },
  {
    "MOLECULE": "CC(=C\\c1ccc(Cl)cc1)/C(C)=N/O [AP18 5]",
    "TESTED ON": "Transient receptor potential cation channel subfamily A member 1 (Homo sapiens)",
    "READOUT KIND": "inhibition",
    "MEASURED NUMBER": 69.1
  },
  {
    "MOLECULE": "CC(C)c1ccc(NC(=O)Cn2cnc3c2c(=O)n(C)c(=O)n3C)cc1",
    "TESTED ON": "Transient receptor potential cation channel subfamily A member 1 (Homo sapiens)",
    "READOUT KIND": "inhibition",
    "MEASURED NUMBER": 73.2
  },
  {
    "MOLECULE": "Cn1c(=O)c2c(ccn2CC(=O)Nc2nc(-c3ccc(F)cc3)cs2)n(C)c1=O",
    "TESTED ON": "Transient receptor potential cation channel subfamily A member 1 (Homo sapiens)",
    "READOUT KIND": "inhibition",
    "MEASURED NUMBER": 47.9
  },
  {
    "MOLECULE": "Cn1c(=O)c2c(ccn2CC(=O)Nc2ccc(C(F)(F)F)cc2)n(C)c1=O",
    "TESTED ON": "Transient receptor potential cation channel subfamily A member 1 (Homo sapiens)",
    "READOUT KIND": "inhibition",
    "MEASURED NUMBER": 99
  },
  {
    "MOLECULE": "COc1cccc(C2NC(=S)NC3=C2C(=O)c2ccccc23)c1 (configuration not stated)",
    "TESTED ON": "Transient receptor potential cation channel subfamily A member 1 (Homo sapiens)",
    "READOUT KIND": "inhibition",
    "MEASURED NUMBER": 83.1
  },
  {
    "MOLECULE": "CCCCc1ccc(NC(=O)Cn2ccc3c2c(=O)n(C)c(=O)n3C)cc1",
    "TESTED ON": "Transient receptor potential cation channel subfamily A member 1 (Homo sapiens)",
    "READOUT KIND": "inhibition",
    "MEASURED NUMBER": 93.5
  }
]

###

# TESTED ON: Transient receptor potential cation channel subfamily A member 1 (Homo sapiens)
# ASSAY NAME: Antagonist activity at human TRPA1 expressed in human IMR90 cells assessed as inhibition of acrolein-induced calcium influx after 40 mins by fluorescence analysis
Collected log10 of IC50 values appear next to each entry.
READOUT KIND: log10 of IC50 (log10 of the value in nM)

[
  {
    "COMPOUND": "CC(=C\\c1ccc(Cl)cc1)/C(C)=N/O [AP18 5]",
    "TESTED ON": "Transient receptor potential cation channel subfamily A member 1 (Homo sapiens)",
    "log10 of IC50": 3.34
  },
  {
    "COMPOUND": "CCCCc1ccc(NC(=O)Cn2ccc3c2c(=O)n(C)c(=O)n3C)cc1",
    "TESTED ON": "Transient receptor potential cation channel subfamily A member 1 (Homo sapiens)",
    "log10 of IC50": 3.04
  },
  {
    "COMPOUND": "COc1cccc(C2NC(=S)NC3=C2C(=O)c2ccccc23)c1 (stereo unspecified)",
    "TESTED ON": "Transient receptor potential cation channel subfamily A member 1 (Homo sapiens)",
    "log10 of IC50": 3.18
  },
  {
    "COMPOUND": "Cn1c(=O)c2c(ccn2CC(=O)Nc2ccc(C(F)(F)F)cc2)n(C)c1=O",
    "TESTED ON": "Transient receptor potential cation channel subfamily A member 1 (Homo sapiens)",
    "log10 of IC50": 2.60
  },
  {
    "COMPOUND": "Cn1c(=O)c2c(ccn2CC(=O)Nc2nc(-c3ccc(F)cc3)cs2)n(C)c1=O",
    "TESTED ON": "Transient receptor potential cation channel subfamily A member 1 (Homo sapiens)",
    "log10 of IC50": 3.61
  },
  {
    "COMPOUND": "Cn1c(=O)c2c(ccn2CC(=O)Nc2nc(-c3ccc(F)c(C(F)(F)F)c3)cs2)n(C)c1=O",
    "TESTED ON": "Transient receptor potential cation channel subfamily A member 1 (Homo sapiens)",
    "log10 of IC50": 3.11
  }
]
